- STUDY TARGET: Monocarboxylate transporter 2 (Rattus norvegicus)
- ASSAY TEXT: TP_TRANSPORTER: inhibition of lactate uptake in Xenopus laevis oocytes
- Format: functional, cell-based
- Parameters: concentration or dose not given beside the values
- EXPERIMENTAL CONTEXT: Oocyte
Where Activity equals or exceeds 40%, the correct label is class 1; where it does not, the label is class 0.

>  <MOLECULE>
O=C(CCc1ccc(O)cc1)c1c(O)cc(O)cc1O

>  <CLASS NAME>
class 0

$$$$
>  <MOLECULE>
O=C(O)C(O)c1ccccc1 (configuration not stated)

>  <CLASS NAME>
class 1

$$$$
>  <MOLECULE>
N#C/C(=C\c1ccc(O)cc1)C(=O)O [alpha-CYANO-4-HYDROXYCINNAMIC ACID]

>  <CLASS NAME>
class 0

$$$$
>  <MOLECULE>
c1ccc(CSSCc2ccccc2)cc1

>  <CLASS NAME>
class 1

$$$$
>  <MOLECULE>
CCCN(CCC)S(=O)(=O)c1ccc(C(=O)O)cc1

>  <CLASS NAME>
class 1

$$$$
>  <MOLECULE>
O=C(O)CC12CC3CC(CC(C3)C1)C2

>  <CLASS NAME>
class 1

$$$$
>  <MOLECULE>
O=C(O)c1cc([N+](=O)[O-])ccc1NCCCc1ccccc1

>  <CLASS NAME>
class 0

$$$$
>  <MOLECULE>
O=C(O)c1ccc(-c2ccccc2)cc1

>  <CLASS NAME>
class 1

$$$$
>  <MOLECULE>
CCc1oc2ccccc2c1C(=O)c1cc(Br)c(O)c(Br)c1

>  <CLASS NAME>
class 0

$$$$
>  <MOLECULE>
CC(=O)Oc1ccccc1O

>  <CLASS NAME>
class 1

$$$$
>  <MOLECULE>
CCCCCC#CCC#CCC#CCC#CCCCC(=O)O

>  <CLASS NAME>
class 1

$$$$
>  <MOLECULE>
O=C(O)c1cccnc1Nc1cccc(C(F)(F)F)c1

>  <CLASS NAME>
class 0

$$$$

----------
- STUDY TARGET: Monocarboxylate transporter 2 (Rattus norvegicus) (UniProt Q63344)
- Sequence (Q63344 whole entry): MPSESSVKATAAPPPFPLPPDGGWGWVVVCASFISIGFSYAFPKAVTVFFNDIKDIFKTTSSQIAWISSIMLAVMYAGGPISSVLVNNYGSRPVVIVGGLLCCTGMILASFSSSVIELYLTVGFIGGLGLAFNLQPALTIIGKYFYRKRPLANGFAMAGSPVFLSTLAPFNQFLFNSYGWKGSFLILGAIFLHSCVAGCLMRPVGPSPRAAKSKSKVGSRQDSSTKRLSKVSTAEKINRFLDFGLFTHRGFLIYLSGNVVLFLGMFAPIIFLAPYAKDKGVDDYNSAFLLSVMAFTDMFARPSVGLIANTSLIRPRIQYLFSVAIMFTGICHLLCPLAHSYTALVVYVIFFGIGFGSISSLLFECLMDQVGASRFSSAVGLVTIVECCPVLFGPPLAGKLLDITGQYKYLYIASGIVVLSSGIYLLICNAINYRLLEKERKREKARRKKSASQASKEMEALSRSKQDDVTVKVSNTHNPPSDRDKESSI
- ASSAY TEXT: TP_TRANSPORTER: inhibition of lactate uptake in Xenopus laevis oocytes
- Assay type: functional, cell-based
- Design: concentration or dose not given beside the values
- EXPERIMENTAL CONTEXT: Oocyte
QUANTITY NAME: Activity (%)

>  <SMILES INPUT>
O=c1c(O)c(-c2ccc(O)c(O)c2)oc2cc(O)cc(O)c12

>  <STUDY TARGET>
Monocarboxylate transporter 2 (Rattus norvegicus) (UniProt Q63344)

>  <QUANTITATIVE RESULT>
17

$$$$
>  <SMILES INPUT>
O=C(O)c1c2ccccc2cc2ccccc12

>  <STUDY TARGET>
Monocarboxylate transporter 2 (Rattus norvegicus) (UniProt Q63344)

>  <QUANTITATIVE RESULT>
104

$$$$
>  <SMILES INPUT>
O=[N+]([O-])c1ccc(/C=C/c2ccc([N+](=O)[O-])cc2S(=O)(=O)O)c(S(=O)(=O)O)c1

>  <STUDY TARGET>
Monocarboxylate transporter 2 (Rattus norvegicus) (UniProt Q63344)

>  <QUANTITATIVE RESULT>
119

$$$$
